Assign pKd to each entry below.
Target under test: T1, EsCas13d, nuclease-dead (Eubacterium siraeum, UniProt B0MS50, R295A;H300A;R849A;H854A)
T1 sequence: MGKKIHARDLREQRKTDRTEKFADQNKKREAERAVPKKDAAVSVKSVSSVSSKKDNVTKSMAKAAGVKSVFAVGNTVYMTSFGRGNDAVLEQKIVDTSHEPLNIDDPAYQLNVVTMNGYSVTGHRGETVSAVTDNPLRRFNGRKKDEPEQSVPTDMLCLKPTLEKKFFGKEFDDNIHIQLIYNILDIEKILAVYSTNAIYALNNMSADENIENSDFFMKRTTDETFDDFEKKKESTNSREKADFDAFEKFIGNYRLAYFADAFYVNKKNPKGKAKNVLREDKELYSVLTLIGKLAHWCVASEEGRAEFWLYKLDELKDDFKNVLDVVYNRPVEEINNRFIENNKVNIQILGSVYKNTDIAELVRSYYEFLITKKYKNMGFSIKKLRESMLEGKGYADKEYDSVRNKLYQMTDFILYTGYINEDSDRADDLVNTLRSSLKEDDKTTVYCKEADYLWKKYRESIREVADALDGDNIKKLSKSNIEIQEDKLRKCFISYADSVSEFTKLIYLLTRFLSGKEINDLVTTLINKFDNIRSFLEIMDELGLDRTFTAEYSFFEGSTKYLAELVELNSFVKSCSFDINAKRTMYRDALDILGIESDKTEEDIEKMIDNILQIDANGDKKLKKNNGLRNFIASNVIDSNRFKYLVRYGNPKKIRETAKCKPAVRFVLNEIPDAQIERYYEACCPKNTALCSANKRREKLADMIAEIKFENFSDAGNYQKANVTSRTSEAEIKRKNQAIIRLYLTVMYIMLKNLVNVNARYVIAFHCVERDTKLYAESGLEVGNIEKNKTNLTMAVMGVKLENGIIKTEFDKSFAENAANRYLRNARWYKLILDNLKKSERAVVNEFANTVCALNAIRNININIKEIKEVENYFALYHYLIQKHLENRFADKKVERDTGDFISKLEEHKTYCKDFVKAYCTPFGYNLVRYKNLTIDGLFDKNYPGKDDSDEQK
Test name: crRNA (strand 1, pre-loaded); Mg2+; 40 mM Tris-HCl pH 7.5, 150 mM NaCl, 6 mM MgCl2, 1 mM DTT, 0.1% Tween-20, 0.2 mg/ml BSA; 25 C; 10 min per concentration, then washed
Test parameters: tags: His6-TwinStrep-SUMO cleaved; N-terminal SNAP kept (SNAP-Surface 488); label: 3' end held by stalled T7 RNA polymerase
Numbers only, as −log10 of the molar value.

Here is how some binders turned out for pKd.
target 2 MT 5'PFS UUA 3'PFS CUC (mixed) RNA 1: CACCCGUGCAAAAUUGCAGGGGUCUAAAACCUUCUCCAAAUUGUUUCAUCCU RNA 2: GGGAAUGGAUCCACAUCUACGAAUUCUUAAGGAUGAAACAAUUUGGAGAAGCUCAGAUCGGAAGAGCACACGU = 7.26
target 1 insU 3' of 15,insC 3' of 9 (mixed) RNA 1: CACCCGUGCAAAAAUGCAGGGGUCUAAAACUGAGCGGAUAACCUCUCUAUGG RNA 2: GGGAAUGGAUCCACAUCUACGAAUUCGUACCAUAGAGUAGGUUACUCCGCUCACCGAGAUCGGAAGAGCACACGU = 7.17
target 1 G13A,A14U (mixed) RNA 1: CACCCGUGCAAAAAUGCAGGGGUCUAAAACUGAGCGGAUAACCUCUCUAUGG RNA 2: GGGAAUGGAUCCACAUCUACGAAUUCGUACCAUAGAGUAGUUAUCCGCUCACCGAGAUCGGAAGAGCACACGU = 8.18

Now for another entry.
Quick one: pKd of target 1 MT 5'PFS GGG 3'PFS CGC (mixed) RNA 1: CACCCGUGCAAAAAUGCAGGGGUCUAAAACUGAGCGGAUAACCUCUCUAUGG RNA 2: GGGAAUGGAUCCACAUCUACGAAUUCGGGCCAUAGAGAGGUUAUCCGCUCACGCAGAUCGGAAGAGCACACGU ?
7.19
